This collection of values is drawn from patent US9815835B2.

# studySystem: cap-dependent endonuclease (RNP fraction containing PB1•PB2•PA complex) (Influenza A virus, UniProt P15659)
# experimentDescription: biochemical
# settings: RNP from A/WSN/33 virus, capped Cy3/BHQ2 30mer RNA substrate, 60 minutes at room temperature; read-out: CEN IC50
pIC50: −log10 of the molar value.
Tick yes if pIC50 is 7 or greater. Tick no if pIC50 is less than 7.

compound="CC(C)N1CN(C2c3ccccc3CSc3ccc(F)cc32)n2ccc(=O)c(O)c2C1=O (centres unmarked)" answerlabel=yes

Now, please, on to the next compound.
Hello, I need to know if COCCN1CN(Cc2ccccc2-c2ccccc2)n2ccc(=O)c(O)c2C1=O has measured pIC50 not below 7. Thanks! no

* * *

I'd be grateful if you could share measured IC50 for these entries.
# studySystem: cap-dependent endonuclease (RNP fraction containing PB1•PB2•PA complex) (Influenza A virus, UniProt P15659)
# experimentDescription: biochemical
# settings: RNP from A/WSN/33 virus, capped Cy3/BHQ2 30mer RNA substrate, 60 minutes at room temperature; read-out: CEN IC50

Recorded IC50, per entry:
compound="CC(CN1CCSCC1)N1CN(C2c3ccccc3CSc3ccccc32)n2ccc(=O)c(O)c2C1=O (stereo not shown)" parametermeasured=IC50 measuredvalue="133 nM"
compound=C[C@@H](N1CN([C@@H]2c3ccccc3SCc3c(C#N)cccc32)n2ccc(=O)c(O)c2C1=O)C(F)(F)F parametermeasured=IC50 measuredvalue="31 nM"

Give IC50 for each listed item.
1. CN1CC(C2c3ccccc3CCc3ccccc32)n2ccc(=O)c(O)c2C1=O (stereo not shown)
2. O=C1c2c(O)c(=O)ccn2N(C2c3ccccc3CCc3ccccc32)CN1[C@@H]1CCN(CCO)C1

1: 88 nM; 2: 135 nM

* * *

# studySystem: cap-dependent endonuclease (RNP fraction containing PB1•PB2•PA complex) (Influenza A virus, UniProt P15659)
# experimentDescription: biochemical
# settings: RNP from A/WSN/33 virus, capped Cy3/BHQ2 30mer RNA substrate, 60 minutes at room temperature; read-out: CEN IC50
pIC50: −log10 of the molar value.
Assign 1 whenever pIC50 does not fall below 7; assign 0 whenever it does.

Solved entries (count: 4):
compound=CS(=O)(=O)N1CC[C@@H](N2CN(C3c4ccccc4CCc4ccccc43)n3ccc(=O)c(O)c3C2=O)C1 answerlabel=1
compound="COCC(COC)N1CN(C2c3ccccc3CSc3c(F)cccc32)n2ccc(=O)c(O)c2C1=O (centres unmarked)" answerlabel=0
compound="CN1CN(C2c3ccccc3CSc3cc(F)ccc32)n2ccc(=O)c(O)c2C1=O (centres unmarked)" answerlabel=1
compound=O=C1c2c(O)c(=O)ccn2N(Cc2csc3ccc(Cl)cc23)CN1Cc1ccc(F)cc1 answerlabel=0

Quick check: does C[C@@H](N1CN([C@H]2c3ccc(F)cc3CSc3c(F)cccc32)n2ccc(=O)c(O)c2C1=O)C(F)(F)F have pIC50 greater than or equal to 7? 1

* * *

# studySystem: cap-dependent endonuclease (RNP fraction containing PB1•PB2•PA complex) (Influenza A virus, UniProt P15659)
# experimentDescription: biochemical
# settings: RNP from A/WSN/33 virus, capped Cy3/BHQ2 30mer RNA substrate, 60 minutes at room temperature; read-out: CEN IC50
For each entry below, report its IC50 value.
One number for each entry, in nM.

Examples with answers:
compound=CCN1CN(C2c3ccccc3CCc3ccccc32)n2ccc(=O)c(O)c2C1=O parametermeasured=IC50 measuredvalue=43
compound="O=C1c2c(O)c(=O)ccn2N(C(c2ccccc2)c2ccccc2)CN1C1CCOC1 (centres unmarked)" parametermeasured=IC50 measuredvalue=276
compound=O=C1c2c(O)c(=O)ccn2N(C2c3ccccc3CCc3ccccc32)CN1CCO parametermeasured=IC50 measuredvalue=39
compound="COC(=O)NCC1N(C(C)C)C(=O)c2c(O)c(=O)ccn2N1C1c2ccccc2CCc2ccccc21 (centres unmarked)" parametermeasured=IC50 measuredvalue=168
compound=CN1CN(C2c3ccccc3CCc3ccccc32)n2ccc(=O)c(O)c2C1=O parametermeasured=IC50 measuredvalue=16

Okay, here is my list. What is IC50 for each of these?
1. CC(C)N1CN(C2c3cc(Cl)ccc3CCc3ccc(Cl)cc32)n2ccc(=O)c(O)c2C1=O
2. CS(=O)(=O)CCN1CN(C2c3ccccc3CSc3ccccc32)n2ccc(=O)c(O)c2C1=O (centres unmarked)

[68, 108]

I'm hoping you can list IC50 for every compound here, please.
1. CC(CN1CCCCC1)N1CN(C2c3ccccc3CSc3ccccc32)n2ccc(=O)c(O)c2C1=O (centres unmarked)
2. Cc1cc(CN2CN(C3c4ccccc4CSc4ccccc43)n3ccc(=O)c(O)c3C2=O)no1 (centres unmarked)
3. CCC(COC)N1CN(C(c2ccccc2)c2ccccc2)n2ccc(=O)c(O)c2C1=O (centres unmarked)

1: 91; 2: 59; 3: 243

* * *

Give pIC50 for every item shown.
# studySystem: cap-dependent endonuclease (RNP fraction containing PB1•PB2•PA complex) (Influenza A virus, UniProt P15659)
# experimentDescription: biochemical
# settings: RNP from A/WSN/33 virus, capped Cy3/BHQ2 30mer RNA substrate, 60 minutes at room temperature; read-out: CEN IC50
Answers are plain numbers, as −log10 of the molar value.

compound=CC(C)(O)CN1CN(C2c3ccccc3CCc3ccccc32)n2ccc(=O)c(O)c2C1=O parametermeasured=pIC50 measuredvalue=6.95
compound=CC(C)N1CN([C@@H]2c3ccccc3[C@@H]3[C@H](c4ccccc42)C3(F)F)n2ccc(=O)c(O)c2C1=O parametermeasured=pIC50 measuredvalue=7.12

Please look at the following compound next.
# get_value(readout='pIC50', item= CC(C)(C)N1CN(C2c3ccccc3CSc3ccccc32)n2ccc(=O)c(O)c2C1=O (stereo not drawn) ) 7.14

* * *

# studySystem: cap-dependent endonuclease (RNP fraction containing PB1•PB2•PA complex) (Influenza A virus)
# experimentDescription: biochemical
# settings: RNP from A/WSN/33 virus, capped Cy3/BHQ2 30mer RNA substrate, 60 minutes at room temperature; read-out: CEN IC50
Consider the following partition of reported IC50 into named classes: bottom range: < 70 nM; center range: ≥ 70 nM and < 200 nM; top range: ≥ 200 nM

Known results for compounds:
compound=CC(C)N1CN(C2c3ccccc3CCc3ccccc32)n2cc(CF)c(=O)c(O)c2C1=O answerlabel="bottom range"
compound=C[C@H](N1CN([C@H]2c3ccc(Cl)cc3CSc3ccccc32)n2ccc(=O)c(O)c2C1=O)C(F)(F)F answerlabel="bottom range"
compound=CN1CC[C@H](N2CN(C3c4ccccc4CCc4ccccc43)n3ccc(=O)c(O)c3C2=O)C1 answerlabel="top range"
compound=COCCN1C[C@H](C(c2ccccc2)c2ccccc2)n2cc(C)c(=O)c(O)c2C1=O answerlabel="top range"
compound="CN1CN(C2c3ccccc3CSc3cc(Cl)ccc32)n2ccc(=O)c(O)c2C1=O (stereo not shown)" answerlabel="bottom range"

For CSCCC1N(C(C)C)C(=O)c2c(O)c(=O)ccn2N1C1c2ccccc2CCc2ccccc21 (stereo not shown) , which IC50 bin applies? bottom range

Entry N#CCN1C[C@H](C(c2ccccc2)c2ccccc2)n2ccc(=O)c(O)c2C1=O belongs to which category? center range

* * *

# studySystem: cap-dependent endonuclease (RNP fraction containing PB1•PB2•PA complex) (Influenza A virus, UniProt P15659)
# experimentDescription: biochemical
# settings: RNP from A/WSN/33 virus, capped Cy3/BHQ2 30mer RNA substrate, 60 minutes at room temperature; read-out: CEN IC50
Rule: IC50 below 100 nM gives Yes, anything at or above gives No.

// known answers, use as guide
molecule="CC(C)N1C(=O)c2c(O)c(=O)ccn2N(C2c3ccccc3CCc3ccccc32)C1c1ccc(Cl)cc1 (stereo not drawn) [Example 527]" answerlabel=No
molecule="COCCN1CN(C2c3ccccc3CSc3c(F)cccc32)n2ccc(=O)c(O)c2C1=O (stereo not drawn) [Example 336]" answerlabel=Yes
molecule="CC(C)N1CN(Cc2cccc3ccsc23)n2ccc(=O)c(O)c2C1=O [Example 204]" answerlabel=No

# check: IC50 < 100 nM for CC(C)N1CN(C2c3cc(Cl)ccc3COc3ccccc32)n2ccc(=O)c(O)c2C1=O (stereo not drawn) [Example 408] No

In the record for O=C(O)c1cn2c(c(O)c1=O)C(=O)N(CC1CCCCO1)C[C@@H]2C(c1ccccc1)c1ccccc1 (stereo partly drawn) [Example 26] , is IC50 less than 100 nM? No

A record lists COCCN1CN(C2c3ccccc3COc3ccccc32)n2ccc(=O)c(O)c2C1=O (stereo not drawn) [Example 394] . Is its IC50 below 100 nM? Yes

Report whether reported IC50 is lower than 100 nM (strictly) for O=C1c2c(O)c(=O)ccn2N(C2c3ccccc3CSc3ccccc32)CN1C1CC1 (stereo not drawn) [Example 302] Yes

Item CC(C)N1C(=O)c2c(O)c(=O)ccn2N(C2c3ccccc3CCc3ccccc32)C1CCO (stereo not drawn) [Example 548] : IC50 beneath 100 nM, strictly? Yes

Quick check: IC50 of O=C1c2c(O)c(=O)ccn2N(C2c3ccccc3CSc3ccccc32)CN1Cc1ccccn1 (stereo not drawn) [Example 307] under 100 nM? Yes

Answer whether the molecule O=C1c2c(O)c(=O)ccn2N(C2c3ccccc3CCc3ccccc32)CN1Cc1ccccn1 [Example 264] has IC50 strictly less than 100 nM Yes

Criterion: IC50 strictly below 100 nM. Is it met by COCCC1N(C(C)C)C(=O)c2c(O)c(=O)ccn2N1C1c2ccccc2CCc2ccccc21 (stereo not drawn) [Example 511] ? No

Strictly below 100 nM: is that where IC50 of COC(OC)C1N(C(C)C)C(=O)c2c(O)c(=O)ccn2N1C1c2ccccc2CCc2ccccc21 (stereo not drawn) [Example 520] sits? No

Quick check: IC50 of O=C1c2c(O)c(=O)ccn2N(C2c3ccccc3COc3ccccc32)CN1C1CC1 (stereo not drawn) [Example 392] under 100 nM? No

Determine if CN1CN(C2c3ccccc3CSc3ccc(F)cc32)n2ccc(=O)c(O)c2C1=O (stereo not drawn) [Example 349] shows IC50 strictly lower than 100 nM. Yes

Confirm or reject: IC50 of CC(CO)N1CN(C2c3ccccc3CSc3ccccc32)n2ccc(=O)c(O)c2C1=O (stereo not drawn) [Example 363] lies strictly below 100 nM Yes
